# target: δ opioid receptors (Mus musculus, UniProt P32300)
# Construct: Bioassays Using Isolated Organ Preparations; from tissue; host or cells: mouse vas deferens (isolated organ)
# Sequence (P32300 whole entry): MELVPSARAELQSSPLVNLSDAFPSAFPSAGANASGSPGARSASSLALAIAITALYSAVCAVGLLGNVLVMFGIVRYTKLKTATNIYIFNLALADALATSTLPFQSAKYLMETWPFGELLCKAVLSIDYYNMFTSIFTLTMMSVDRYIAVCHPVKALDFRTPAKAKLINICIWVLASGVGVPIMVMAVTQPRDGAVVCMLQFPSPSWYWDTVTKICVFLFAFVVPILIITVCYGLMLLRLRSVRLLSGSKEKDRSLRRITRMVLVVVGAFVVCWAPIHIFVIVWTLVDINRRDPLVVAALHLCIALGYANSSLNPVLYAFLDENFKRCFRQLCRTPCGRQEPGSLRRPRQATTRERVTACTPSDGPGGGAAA
# assay-method-text: Mouse vas deferens (MVD) bioassay, antagonism of electrically evoked contraction inhibition by δ-selective agonists
# Format: tissue-based
# experimental-parameters: Ke (nM) against DPDPE, MVD assay; δ agonist DPDPE; means of 3-8 determinations
Peptide text beside a SMILES is read from it.
Overview of reported Kb across a group of molecules:
endpoint-name: Kb (nM)

# molecule, unit-abbrev, obs-value
measured = [
    ("N[C@@H](Cc1ccc(O)c(Br)c1)C(=O)N1Cc2ccccc2C[C@H]1C(=O)N[C@@H](Cc1ccccc1)C(=O)N[C@@H](Cc1ccccc1)C(=O)O [HTyr(3-Br)TicPhePheOH, H-Tyr(3-Br)-Tic-Phe-Phe-OH] (HELM PEPTIDE1{[N[C@@H](Cc1ccc(O)c(Br)c1)C(=O)[*:2]].[Tic].F.F}$$$$V2.0)", "nM", 31.3),
    ("N[C@@H](Cc1ccc(O)cc1)C(=O)N1Cc2ccccc2C[C@H]1C(=O)N[C@@H](Cc1ccccc1)C(=O)O [HTyrTicPheOH, H-Tyr-Tic-Phe-OH] (HELM PEPTIDE1{Y.[Tic].F}$$$$V2.0)", "nM", 16.1),
    ("NC(=O)[C@H](CO)NC(=O)[C@@H]1CCCN1C(=O)[C@H](Cc1ccc(O)cc1)NC(=O)[C@H](Cc1ccccc1)NC(=O)[C@H](Cc1ccccc1)NC(=O)[C@@H]1Cc2ccccc2CN1C(=O)[C@@H](N)Cc1ccc(O)cc1 [HTyrTicPhePheTyrProSerNH2, H-Tyr-Tic-Phe-Phe-Tyr-Pro-Ser-NH2] (HELM PEPTIDE1{Y.[Tic].F.F.Y.P.S.[am]}$$$$V2.0)", "nM", 4.63),
    ("N[C@@H](Cc1ccc(O)cc1)C(=O)N1Cc2ccccc2C[C@H]1C(=O)N[C@@H](Cc1c[nH]c2ccccc12)C(=O)O [HTyrTicTrpOH] (HELM PEPTIDE1{Y.[Tic].W}$$$$V2.0)", "nM", 6.23),
    ("N[C@@H](Cc1ccc(O)c(F)c1)C(=O)N1Cc2ccccc2C[C@H]1C(=O)N[C@@H](Cc1ccccc1)C(=O)N[C@@H](Cc1ccccc1)C(=O)O [HTyr(3-F)TicPhePheOH, H-Tyr(3-F)-Tic-Phe-Phe-OH] (HELM PEPTIDE1{[N[C@@H](Cc1ccc(O)c(F)c1)C(=O)[*:2]].[Tic].F.F}$$$$V2.0)", "nM", 13),
    ("NC(=O)[C@H](CO)NC(=O)[C@@H]1CCCN1C(=O)[C@H](Cc1ccc(O)cc1)NC(=O)[C@H](Cc1ccccc1)NC(=O)[C@H](Cc1c[nH]c2ccccc12)NC(=O)[C@@H]1Cc2ccccc2CN1C(=O)[C@@H](N)Cc1ccc(O)cc1 [HTyrTicTrpPheTyrProSerNH2, H-Tyr-Tic-Trp-Phe-Tyr-Pro-Ser-NH2] (HELM PEPTIDE1{Y.[Tic].W.F.Y.P.S.[am]}$$$$V2.0)", "nM", 3.65),
    ("N[C@@H](Cc1ccc(O)cc1)C(=O)N1Cc2ccccc2C[C@H]1CN[C@@H](CCc1ccccc1)C(=O)N[C@@H](Cc1ccccc1)C(=O)O [HTyrTic.psi.[CH2NH]HfePheOH, H-Tyr-Tic-.PSI.[CH2 --NH]Hfe-Phe-OH]", "nM", 2.64),
]

====

// reported Ki for each item listed
# target: δ opioid receptor (Rattus norvegicus)
# Construct: Male Sprague-Dawley rats (300-350 g) from the Canadian Breeding Laboratories were decapitated and after removal of the cerebellum the brains were homogenized; from tissue; host or cells: rat brain (without cerebellum) membranes, male Sprague-Dawley
# Sequence (P33533 whole entry): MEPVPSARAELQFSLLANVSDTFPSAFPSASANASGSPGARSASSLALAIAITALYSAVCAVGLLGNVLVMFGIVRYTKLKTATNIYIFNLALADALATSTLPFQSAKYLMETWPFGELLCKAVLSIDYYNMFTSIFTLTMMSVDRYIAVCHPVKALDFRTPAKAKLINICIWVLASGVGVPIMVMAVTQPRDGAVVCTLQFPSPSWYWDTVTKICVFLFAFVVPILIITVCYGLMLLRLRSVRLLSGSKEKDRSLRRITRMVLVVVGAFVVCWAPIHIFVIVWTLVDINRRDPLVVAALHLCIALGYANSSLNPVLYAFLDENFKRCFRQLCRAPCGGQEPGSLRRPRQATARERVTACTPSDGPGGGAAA
# assay-method-text: δ opioid receptor binding assay, displacement of δ-selective radioligand from rat brain membranes
# experimental-parameters: rat brain membranes; means of 3 determinations; read-out: Ki^.xi.
Peptide text beside a SMILES is read from it.

# molecule, Ki
measured = [
    ("NC(=O)[C@H](Cc1ccccc1)NC(=O)[C@H](Cc1ccccc1)NC(=O)[C@@H]1Cc2ccccc2CN1C(=O)[C@@H](N)Cc1ccc(O)cc1 [HTyrTicPhePheNH2, H-Tyr-Tic-Phe-Phe-NH2] (HELM PEPTIDE1{Y.[Tic].F.F.[am]}$$$$V2.0)", "3 nM"),
    ("N[C@@H](Cc1ccc(O)cc1)C(=O)N1Cc2ccccc2C[C@H]1C(=O)N[C@@H](Cc1ccccc1)C(=O)O [HTyrTicPheOH, H-Tyr-Tic-Phe-OH] (HELM PEPTIDE1{Y.[Tic].F}$$$$V2.0)", "9.07 nM"),
    ("N[C@@H](Cc1ccc(O)cc1)C(=O)N1Cc2ccccc2C[C@H]1CN[C@@H](Cc1ccccc1)C(=O)O [HTyrTic-.psi.[CH2NH]PheOH, H-Tyr-Tic.PSI.[CH2 -NH]Phe-OH]", "1.94 nM"),
]

====

# target: δ opioid receptors (Mus musculus)
# Construct: Bioassays Using Isolated Organ Preparations; from tissue; host or cells: mouse vas deferens (isolated organ)
# assay-method-text: Mouse vas deferens (MVD) bioassay, antagonism of electrically evoked contraction inhibition by δ-selective agonists
# Type: tissue-based
# experimental-parameters: Ke (nM) against DPDPE, MVD assay; δ agonist DPDPE; means of 3-8 determinations
Peptide text beside a SMILES is read from it.
endpoint-name: Kb (nM)

# molecule, endpoint-name, obs-value
rows = [
    ("Cc1cc(O)cc(C)c1C[C@H](N)C(=O)N1Cc2ccccc2C[C@H]1CN[C@@H](Cc1ccccc1)C(=O)N[C@@H](Cc1ccccc1)C(N)=O [HDmtTic.psi.[CH2NH]PhePheNH2, H-Dmt-Tic.PSI.[CH2 --NH]Phe-Phe-NH2]", "Kb", 0.42),
    ("N[C@@H](Cc1ccc(O)cc1)C(=O)N1Cc2ccccc2C[C@H]1C(=O)N[C@@H](Cc1ccc2ccccc2c1)C(=O)N[C@@H](Cc1ccccc1)C(=O)O [HTyrTic-2-NalPheOH, H-Tyr-Tic-2-Nal-Phe-OH] (HELM PEPTIDE1{Y.[Tic].[O=C([C@H](Cc1ccc2ccccc2c1)N[*:1])[*:2]].F}$$$$V2.0)", "Kb", 4.41),
    ("CCCCCCN[C@@H](Cc1ccc(O)cc1)C(=O)N1Cc2ccccc2C[C@H]1C(=O)N[C@@H](Cc1ccccc1)C(=O)N[C@@H](Cc1ccccc1)C(=O)O [Tyr(N^α Hex)-TicPhePheOH, Tyr(N^α Hex)-Tic-Phe-Phe-OH]", "Kb", 4.28),
    ("N[C@@H](Cc1ccc(O)cc1)C(=O)N1Cc2ccccc2C[C@H]1C(=O)N[C@@H](CCc1ccccc1)C(=O)N[C@@H](Cc1ccccc1)C(=O)O [HTyrTicHfePheOH, H-Tyr-Tic-Hfe-Phe-OH] (HELM PEPTIDE1{Y.[Tic].[O=C([C@H](CCc1ccccc1)N[*:1])[*:2]].F}$$$$V2.0)", "Kb", 0.609),
]

====

# target: μ opioid receptor (Rattus norvegicus)
# Construct: Male Sprague-Dawley rats (300-350 g) from the Canadian Breeding Laboratories were decapitated and after removal of the cerebellum the brains were homogenized; from tissue; host or cells: rat brain (without cerebellum) membranes, male Sprague-Dawley
# Sequence (P33535 whole entry): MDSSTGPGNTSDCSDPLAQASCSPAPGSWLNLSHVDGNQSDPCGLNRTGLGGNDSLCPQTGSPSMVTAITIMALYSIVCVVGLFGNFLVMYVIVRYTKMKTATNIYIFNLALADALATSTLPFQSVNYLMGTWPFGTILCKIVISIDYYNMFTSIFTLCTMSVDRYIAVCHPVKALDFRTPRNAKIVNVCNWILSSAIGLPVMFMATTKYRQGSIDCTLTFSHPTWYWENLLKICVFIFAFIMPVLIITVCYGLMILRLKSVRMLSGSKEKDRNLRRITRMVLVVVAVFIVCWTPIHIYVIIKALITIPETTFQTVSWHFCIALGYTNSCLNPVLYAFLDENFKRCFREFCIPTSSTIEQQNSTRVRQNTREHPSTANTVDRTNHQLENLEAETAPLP
# assay-method-text: μ opioid receptor binding assay, displacement of [3H]DAMGO from rat brain membranes
Peptide text beside a SMILES is read from it.

# compound, target, Ki, µM
records = [
    ("CC(C)[C@H](NC(=O)[C@H](Cc1ccccc1)NC(=O)[C@H](Cc1ccccc1)NC(=O)[C@@H]1Cc2ccccc2CN1C(=O)[C@@H](N)Cc1ccc(O)cc1)C(=O)N[C@H](C(=O)NCC(N)=O)C(C)C [HTyrTicPhePheValValGlyNH2, H-Tyr-Tic-Phe-Phe-Val-Val-Gly-NH2] (HELM PEPTIDE1{Y.[Tic].F.F.V.V.G.[am]}$$$$V2.0)", "μ opioid receptor (Rattus norvegicus)", 3.29),
    ("N[C@@H](Cc1ccc(O)cc1)C(=O)N1Cc2ccccc2C[C@H]1C(=O)N[C@@H](CCc1ccccc1)C(=O)N[C@@H](Cc1ccccc1)C(=O)O [HTyrTicHfePheOH, H-Tyr-Tic-Hfe-Phe-OH] (HELM PEPTIDE1{Y.[Tic].[O=C([C@H](CCc1ccccc1)N[*:1])[*:2]].F}$$$$V2.0)", "μ opioid receptor (Rattus norvegicus)", 1.99),
    ("N[C@@H](Cc1ccc(O)cc1)C(=O)N1Cc2ccccc2C[C@H]1C(=O)N[C@H](C(=O)N[C@@H](Cc1ccccc1)C(=O)O)c1ccccc1 [HTyrTicPhgPheOH, H-Tyr-Tic-Phg-Phe-OH] (HELM PEPTIDE1{Y.[Tic].[Phg].F}$$$$V2.0)", "μ opioid receptor (Rattus norvegicus)", 29),
    ("N[C@@H](Cc1ccc(O)cc1)C(=O)N1Cc2ccccc2C[C@H]1C(=O)N[C@@H](Cc1ccc2ccccc2c1)C(=O)N[C@@H](Cc1ccccc1)C(=O)O [HTyrTic-2-NalPheOH, H-Tyr-Tic-2-Nal-Phe-OH] (HELM PEPTIDE1{Y.[Tic].[O=C([C@H](Cc1ccc2ccccc2c1)N[*:1])[*:2]].F}$$$$V2.0)", "μ opioid receptor (Rattus norvegicus)", 6.33),
]
